The reported numbers originate from PubChem BioAssay (NCI).

Tested on: UO-31 renal
Assay: NCI-60 one-dose screen, 48 h (100 = growth as untreated, 0 = no growth, -100 = all killed)
Settings: 10 µM unless noted
This is part of a sample that, as a whole, favours compounds with a hit. Of some 83,000 tested, about 20% had one in any assay. The source made the active and inactive calls. How the source made its calls: active means growth percent below 10; inactive means the rest.
Below: a set of entries, each annotated with reported growth.
Measured property: growth

Molecule: COc1ccccc1NS(=O)(=O)c1ccc2oc(SC(C)C)nc2c1
Target desc: UO-31 renal
Measured property: growth
Observed result: 73.5% (inactive)

Molecule: CC[N+](CC)=c1sc2c(s1)C(c1ccc(Cl)cc1)Oc1ccc(Cl)cc1-2 (stereo not given)
Target desc: UO-31 renal
Measured property: growth
Observed result: 70.5% (inactive)

Molecule: O=C(O)COc1ccc(Cl)cc1C1CCCCC1
Target desc: UO-31 renal
Measured property: growth
Observed result: 87.6% (inactive)

Molecule: CC(C)CC1C(=O)N2CCC[C@H]2C2(O)O[C@](NC(=O)C3C=C4c5cccc6[nH]c(Br)c(c56)C[C@H]4N(C)C3)(C(C)C)C(=O)N12 (stereo not given in full)
Target desc: UO-31 renal
Measured property: growth
Observed result: 36.2% (inactive)

Molecule: COc1ccc(CN2c3ccccc3Sc3ccccc32)c(C(F)(F)F)c1
Target desc: UO-31 renal
Measured property: growth
Observed result: 45.6% (inactive)

----------
Below: a set of entries, each annotated with reported growth.
Tested on: MDA-MB-231 breast
Assay: NCI-60 one-dose screen, 48 h (100 = growth as untreated, 0 = no growth, -100 = all killed)
Settings: 10 µM unless noted
About 83,000 compounds went through this panel and 20% of them were active in at least one assay; those are over-represented in the sample as a whole.

Compound: NC(=O)c1cc(Br)ccc1NC(=O)/C=C/c1ccccc1
growth [%]: 45.3

Compound: CCOc1cc2ncc(C#N)c(Nc3ccc(F)c(Cl)c3)c2cc1NC(=O)CC1CCSS1 (configuration not stated)
growth [%]: -66.4

Compound: N#CCCN=Nc1c(O)[nH]c2ccc(F)cc12
growth [%]: 102

Compound: Cc1nc2ccccc2n1C(=O)C[C@@H]1NC(=S)NC1=O
growth [%]: 95.8

Compound: O=Nc1c(O)c(Cl)cc2ccccc12
growth [%]: 74.3

Compound: COc1ccc(C(=O)/C=C/c2cccnc2Nc2cc(OC)c(OC)c(OC)c2)cc1
growth [%]: 49

Compound: CCN1CCC2(CC1)NC(=O)c1c(c3ccc(Cl)c(Cl)c3n1C)C2C#N (configuration not stated)
growth [%]: 60.5

Compound: NC(=NC1C2CC3CC(C2)CC1C3)Nc1ccc(I)cc1 (configuration not stated)
growth [%]: 41.8

Compound: Oc1cccc2ccc(N/N=C/c3cc(CN4CCOCC4)c(O)c4ncccc34)nc12
growth [%]: 20

Compound: CC(C)(C)N1CCC1CN (configuration not stated)
growth [%]: 116

Compound: COc1ccc(/C=C/c2nc(-c3n[nH]c(=O)n3-c3ccccc3)c3ccccc3n2)cc1
growth [%]: 94.5

Compound: CC1=C[C@H]2c3c(c(O)c(O)c4oc5ccccc5c(=O)c34)[C@H](c3cc(O)c(O)c4oc5ccccc5c(=O)c34)[C@H]2C(C)(C)C1
growth [%]: 12.1

----------
Below: a set of entries, each annotated with reported growth.
System: HCT-116 colon
Assay: NCI-60 one-dose screen, 48 h (100 = growth as untreated, 0 = no growth, -100 = all killed)
Conditions: 10 µM unless noted
The panel holds about 83,000 compounds, 20% with a hit somewhere; the sample as a whole holds those more often. The source made the active and inactive calls. Rule for the calls: active = growth percent below 10; inactive = the rest.

Compound: C(=N/Nc1ncc(-c2cc3cc(-c4ccccc4)ccc3o2)s1)/c1cccs1
growth: 91.5% (inactive)

Compound: O=C(COc1cccc(/C=C2\CSc3ccccc3C2=O)c1)Nc1nccs1
growth: -21% (active)

Compound: NC(CSC(c1ccccc1)(c1ccccc1)c1ccc(Cl)cc1)C(=O)O (centres undefined)
growth: 4.19% (active)

Compound: Cc1ccc2c(C(C[N+](=O)[O-])c3ccccc3)c(-c3ccccc3)[nH]c2c1 (centres undefined)
growth: 24.4% [9.5 µM] (inactive)

Compound: OCC(O)c1nc2ccc3[nH]ncc3c2c2c1CCCC2 (centres undefined)
growth: 1.98% (active)

Compound: C=CC(=O)Nc1cccc(Nc2nc(SC)nc(-c3cccc([N+](=O)[O-])c3)c2C#N)c1
growth: 19.8% (inactive)

Compound: Cn1ccnc1C(=O)/C=C/c1ccccc1
growth: 9.05% (active)

Compound: COc1cc(-c2nc3cc(Cl)c(Cl)cc3[nH]2)ccc1OCC(=O)N=Nc1c(O)[nH]c2ccccc12
growth: -75.6% (active)

Compound: O=C1c2ccccc2OC=C(c2ccccc2)N1CCCCNc1ccc(S(=O)(=O)Nc2ncccn2)cc1
growth: 96.1% (inactive)

Compound: CCn1c(Cc2ccccc2Nc2c(Cl)cccc2Cl)nnc1SCC(=O)NN1C(=O)/C(=C/c2cc(OC)c(O)c(OC)c2)SC1=S
growth: 11.5% (inactive)

Compound: C#CC(F)(F)[C@]1(O)CC[C@H]2[C@@H]3CCC4=CC(=O)CCC4=C3[C@@H](c3ccc(C4CC4)cc3)C[C@@]21C
growth: 75.8% (inactive)

Compound: CCCCn1c(-c2ccc(C(=O)O/N=C(\N)c3ccc4c(c3)OCO4)cc2)nc(-c2ccccc2)c1-c1ccccc1
growth: 4.35% (active)

Compound: Cc1cc2nc3[nH]c4ccccc4c3nc2cc1C
growth: 46.1% (inactive)

Compound: COc1cc(/C=C/C(=O)c2cccnc2Nc2ccc(F)cc2)cc(OC)c1OC
growth: 13.9% (inactive)

Compound: CN(C)c1ccc(N=Nc2ccc(Br)cn2)c(O)c1
growth: 25.5% (inactive)

Compound: COc1ccc(CN2c3ccccc3Oc3ccccc32)cc1O
growth: 13.7% (inactive)

Compound: NC1=C(Cl)C(=O)c2ccc(S(N)(=O)=O)cc2C1=O
growth: -90.1% (active)

Compound: COc1ccc(NC(=O)c2ccc(/C=C/C(=O)c3ncc[nH]3)cc2)cc1
growth: 71.5% (inactive)

Compound: CC(=O)O[C@H]1[C@@H]2OC(=O)C(CSc3ccccc3)[C@@H]2C[C@H]2O[C@]2(C)CC/C=C(\C)CCC[C@@H]1C (some centres undefined)
growth: -36.7% (active)

Compound: C#CCOc1ccc2ncnc(N3CCC(NC(=O)CCl)CC3)c2c1
growth: 56.5% [8.25 µM] (inactive)

Compound: Clc1ccc2c(NCCCCNc3nc(N4CCOCC4)nc4ccccc34)ccnc2c1
growth: -7.74% (active)

Compound: O=C(CCl)Oc1ccc(-c2ccccc2)c(Br)c1
growth: 108% (inactive)

Compound: CN(C)S(=O)(=O)c1cccc(-c2nc3sc4c(c3c(=O)[nH]2)CCCC4)c1
growth: -41.3% (active)

Compound: Cn1ncc2c(=O)nc3c(-c4ccccc4)n[nH]n3c21
growth: 97.6% (inactive)

Compound: O=c1ccccc(-c2ccc(-c3ccco3)cc2)c1O
growth: 21.8% (inactive)

Compound: Fc1ccc(CNc2cccc3[nH]c(C(F)(F)F)nc23)cc1
growth: 95.8% (inactive)

Compound: COc1ccc(-n2nc(C)c3c(Nc4ccc(NC(=O)Nc5c(Cl)cccc5Cl)cc4)ncnc32)cc1
growth: 25% (inactive)

Compound: COc1ccc(-c2cc(NC(=O)Nc3ccc4ncsc4c3)no2)cc1
growth: 102% (inactive)

Compound: C=C1C(=O)O[C@H]2[C@H]1CC/C(COC(=O)NCCc1ccc(OC)c(OC)c1)=C\CC[C@@]1(C)O[C@@H]21
growth: 5.66% (active)

Compound: CC(=O)NCC1c2c(n(C)c3c(Cl)c(Cl)ccc23)C(=O)NC1(C)C (centres undefined)
growth: 94.8% (inactive)

Compound: O=C(Cn1cccc(Nc2ccccc2)c1=O)Nc1ccccc1
growth: 98.6% (inactive)

Compound: COc1cccc2c1C(=O)c1c(O)c3c(c(O)c1C2=O)C[C@](O)(C(=O)CO)C[C@H]3O[C@@H]1C[C@@H](NC(=O)CCCCCN(C)C2(c3ccc(F)cc3)CC3CCC2C3)[C@H](O)[C@@H](C)O1 (some centres undefined)
growth: -91.8% (active)

Compound: O=S(=O)(Nc1ccc(Cl)c(F)c1)c1ccc(-c2cnc(C3CC3)o2)cc1
growth: 23.1% (inactive)

Compound: CCCCCCN(CCCCCC)C(=N)c1ccnc2ccccc12
growth: 31.2% (inactive)

Compound: COc1cccc(-c2nn(C(C)(C)C)cc2-c2ccnc(NCCCNS(=O)(=O)c3ccc(C)cc3)c2)c1
growth: 96.7% (inactive)

Compound: C=C(C)C1CC(O)C2(C)CCCC3C2C1CC(C)C3(C)CC/C(C)=C/C(O)C1CCC(=O)c2c(OC)cc(OC)cc21 (centres undefined)
growth: 28.5% (inactive)

Compound: N#C/C(=C\c1ccc(-c2ccc(Cl)c(Cl)c2)o1)c1nc(-c2ccco2)cs1
growth: 97.9% (inactive)

Compound: Cc1cc(N2CCSCC2)nc(NC2CCCC(Nc3ccnc4cc(Cl)ccc34)C2)n1 (centres undefined)
growth: -65.6% (active)

Compound: COc1ccc(CCNc2nc(SC)nc(-c3cccc([N+](=O)[O-])c3)c2C#N)cc1OC
growth: 82% (inactive)
